Molecular target: human ether-à-go-go-related gene (hERG) potassium channel (human);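 note: peak tail current of the secondary pulse compared with the same well before compound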
Sequence (Q12809 whole entry, looked up): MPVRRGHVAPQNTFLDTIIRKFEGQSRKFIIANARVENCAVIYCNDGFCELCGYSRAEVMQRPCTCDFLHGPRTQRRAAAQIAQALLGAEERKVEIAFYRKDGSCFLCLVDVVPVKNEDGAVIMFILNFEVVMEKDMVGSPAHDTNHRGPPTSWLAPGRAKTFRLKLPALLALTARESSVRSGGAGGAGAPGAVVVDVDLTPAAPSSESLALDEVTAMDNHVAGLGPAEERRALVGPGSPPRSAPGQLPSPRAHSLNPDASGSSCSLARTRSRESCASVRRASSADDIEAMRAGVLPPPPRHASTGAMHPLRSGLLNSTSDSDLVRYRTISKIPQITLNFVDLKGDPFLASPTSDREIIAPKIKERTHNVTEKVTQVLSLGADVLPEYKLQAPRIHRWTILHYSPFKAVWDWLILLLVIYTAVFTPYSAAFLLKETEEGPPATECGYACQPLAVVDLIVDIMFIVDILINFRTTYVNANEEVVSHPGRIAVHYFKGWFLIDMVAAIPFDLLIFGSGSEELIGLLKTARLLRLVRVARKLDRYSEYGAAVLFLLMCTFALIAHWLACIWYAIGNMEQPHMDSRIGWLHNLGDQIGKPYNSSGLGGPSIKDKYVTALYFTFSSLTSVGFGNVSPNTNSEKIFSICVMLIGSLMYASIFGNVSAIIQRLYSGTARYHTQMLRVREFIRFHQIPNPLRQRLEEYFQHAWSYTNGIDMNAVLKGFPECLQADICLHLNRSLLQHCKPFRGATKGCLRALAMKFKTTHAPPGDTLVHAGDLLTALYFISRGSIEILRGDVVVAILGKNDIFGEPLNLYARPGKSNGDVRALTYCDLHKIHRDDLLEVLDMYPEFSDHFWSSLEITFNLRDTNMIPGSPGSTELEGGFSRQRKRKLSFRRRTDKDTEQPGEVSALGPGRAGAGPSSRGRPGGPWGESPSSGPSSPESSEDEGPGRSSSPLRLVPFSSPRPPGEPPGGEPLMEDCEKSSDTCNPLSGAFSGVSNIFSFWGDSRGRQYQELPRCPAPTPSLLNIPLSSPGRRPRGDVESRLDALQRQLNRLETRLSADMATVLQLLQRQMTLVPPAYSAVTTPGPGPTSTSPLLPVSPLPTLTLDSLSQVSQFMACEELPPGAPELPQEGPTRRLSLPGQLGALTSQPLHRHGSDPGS
Experiment: primary screen, population patch clamp on CHO cells stably expressing hERG; higher = less effect of the substance
About 14,000 (4.5%) of roughly 310,000 compounds showed an effect of 50% or more. The effect is printed as a negative number. For the sample, strong results were picked, then their nearest neighbours and some compounds at random.
ASSAY READOUT: hERG current change (%, negative = inhibition) at 10uM (%)
Hi! Could you send only the number? It should be in %, unit omitted.

query: # lookup: hERG current change (%, negative = inhibition) at 10uM of O=C(Nc1cccnc1Cl)c1cc([N+](=O)[O-])ccc1Cl
result: 9.09

query: Please give the measured hERG current change (%, negative = inhibition) at 10uM for this molecule: COCC(=O)N(CCc1ccc(OC)c(OC)c1)Cc1nc2ccccc2c(=O)[nH]1
result: -8.28

query: Would you mind telling me what hERG current change (%, negative = inhibition) at 10uM value was observed for CN(C)CCCNc1ccc(-c2n[nH]c(=O)c3ccccc23)cc1[N+](=O)[O-] ?
result: 1.1

query: Which value of hERG current change (%, negative = inhibition) at 10uM has been reported for Cc1cccc(NC(=S)N(CCN2CCOCC2)Cc2cc3cc4c(cc3[nH]c2=O)OCCO4)c1 in the records?
result: -3.3

query: Find the recorded hERG current change (%, negative = inhibition) at 10uM belonging to Oc1ccccc1C1=Nc2ccccc2N=C(c2ccco2)C1 and report it.
result: -12.7

query: If you can, please state the reported hERG current change (%, negative = inhibition) at 10uM value of O=c1nc(-c2ccccc2)n(-c2ccccc2)[nH]1 .
result: 1.69

query: Look up hERG current change (%, negative = inhibition) at 10uM: O=C(Nc1nnc(Cc2ccccc2F)s1)c1ccccc1Cl
result: 12.6

query: Quick check: hERG current change (%, negative = inhibition) at 10uM of COc1ccccc1Nc1nc(N)nc(CSC(=S)N2CCCCC2)n1 ?
result: 0.598

query: Quick one: hERG current change (%, negative = inhibition) at 10uM for Nc1ccc2nc(-c3ccccc3)[nH]c2c1 ?
result: 6.5

query: Need hERG current change (%, negative = inhibition) at 10uM, item CCC(CO)NCc1ccc2c(c1)n(C)c(=O)n2C.Cl (stereo not shown)
result: 17.4
